Entries and their pIC50
System: Plasmodium falciparum
Assay: Antiplasmodial activity against sensitive Plasmodium falciparum NF54 infected in human red blood cells assessed as reduction in [3H]-hypoxanthine incorporation pretreated for 48 hrs followed by [3H]-hypoxanthine addition measured after 24 hrs by scintillation counting method
Type: functional, organism-based
pIC50: −log10 of the molar value.
MEASURED ENDPOINT: pIC50

>>> reported_measurement("C[C@@]1(c2cccc(Nc3ccccc3)c2Cl)CC(=O)N(C2CCOCC2)C(=N)N1")
6.97
>>> reported_measurement("C[C@H]1C[C@@H](N2C(=N)N[C@](C)(c3cccc(NC(=O)c4cccc(C#N)c4)c3Cl)CC2=O)CCO1")
7.46
